test system: Jurkat; test: Antiproliferative activity against human Jurkat cells assessed as inhibition of cell growth measured after 72 hrs by XTT assay; type: functional, cell-based
quantity.kind: IC50 (nM)

# compound, result.units, readout.qualifier, readout.value
measured = [
    ("CC(=O)c1cccc(C(=O)N2CCC(CCCCNC(=O)/C=C/c3cccnc3)CC2)c1", "nM", "=", 850),
    ("O=C(/C=C/c1cccnc1)NCCC1CCN(C(=O)c2ccccc2)CC1", "nM", ">", 200),
    ("O=C(/C=C/c1cccnc1)NCCCCC1CCN(C(=O)c2ccc(C(F)(F)F)cc2)CC1", "nM", ">", 1000),
    ("CC(=O)c1ccc(C(=O)N2CCC(CCCCNC(=O)/C=C/c3cccnc3)CC2)cc1", "nM", "=", 800),
    ("O=C(/C=C/c1cccnc1)NCCCCC1CCN(C(=O)C2CCC(=O)N2)CC1 (centres undefined)", "nM", "=", 350),
    ("COc1cccc(OC)c1C(=O)N1CCC(CCCCNC(=O)/C=C/c2cnccn2)CC1", "nM", ">", 1000),
    ("COc1cccc(OC)c1C(=O)N1CCC(C/C=C/CNC(=O)/C=C/c2cccnc2)CC1", "nM", "=", 5),
    ("COc1cc(OC)c(C(=O)N2CCC(C/C=C/CNC(=O)/C=C/c3cccnc3)CC2)c(OC)c1", "nM", "=", 3),
    ("COc1cccc(C(=O)N2CCC(CCCCNC(=O)/C=C/c3cccnc3)CC2)c1OC", "nM", "=", 3.6),
]

* * *

system: Jurkat; test: Antiproliferative activity against human Jurkat cells assessed as inhibition of cell growth measured after 72 hrs by XTT assay; format: functional, cell-based
pIC50: −log10 of the molar value.
Outcome: 1 for pIC50 of at least 7; 0 for anything lower.

# compound.smiles, qualitative.label
records = [
    ("COc1cc(C=O)cc(OC)c1C(=O)N1CCC(CCCCNC(=O)/C=C/c2cccnc2)CC1", 1),
    ("O=C(/C=C/c1cccnc1)NCCCCC1CCN(C(=O)c2ccc(CO)cc2)CC1", 1),
    ("COc1cccc(OC)c1C(=O)N1CCC(OCCCNC(=O)/C=C/c2cccnc2)CC1", 0),
    ("O=C(/C=C/c1cccnc1F)NCCCCC1CCN(C(=O)c2ccccc2)CC1", 1),
    ("COc1cccc(OC)c1C(=O)N1CCC(CCCCNC(=O)/C=C/c2cccnc2F)CC1", 1),
]

* * *

system: Jurkat; experiment: Antiproliferative activity against human Jurkat cells assessed as inhibition of cell growth measured after 72 hrs by XTT assay; assay type: functional, cell-based
Each item that follows carries a reported IC50.

# compound, system.tested, IC50
data = [
    ("O=C(/C=C/c1cccnc1)NCCCCC1CCN(S(=O)(=O)c2ccccc2)CC1", "Jurkat", "16 nM"),
    ("COc1ccc(C(=O)N2CCC(CCCCNC(=O)/C=C/c3cccnc3)CC2)cc1OC", "Jurkat", "32 nM"),
    ("COc1cc(OC)c(C(=O)N2CCC(CCCCNC(=O)/C=C/c3cccnc3)CC2)c(OC)c1", "Jurkat", "1 nM"),
    ("COc1ccc(C(=O)N2CCC(CCCCNC(=O)/C=C/c3cccnc3)CC2)c(OC)c1OC", "Jurkat", "28 nM"),
    ("O=C(/C=C/c1cccnc1)NCCCCC1CCN(C(=O)/C=C/c2ccccc2)CC1", "Jurkat", "36 nM"),
    ("O=C(/C=C/c1ccc(F)nc1F)NCCCCC1CCN(C(=O)c2ccccc2)CC1", "Jurkat", "6.7 nM"),
    ("COc1ccc(C(=O)N2CCC(CCCCNC(=O)/C=C/c3cccnc3)CC2)cc1", "Jurkat", "100 nM"),
    ("O=Cc1cccc(C(=O)N2CCC(CCCCNC(=O)/C=C/c3cccnc3)CC2)c1", "Jurkat", "40 nM"),
    ("O=C(/C=C/c1cccnc1)NCCCCC1CCN(C(=O)Cc2ccccc2)CC1", "Jurkat", "18 nM"),
    ("O=C(/C=C/c1ccnnc1)NCCCCC1CCN(C(=O)c2ccccc2)CC1", "Jurkat", "33 nM"),
    ("COc1cccc(C(=O)N2CCC(CCCCNC(=O)/C=C/c3cccnc3)CC2)c1", "Jurkat", "9 nM"),
    ("O=Cc1ccc(C(=O)N2CCC(CCCCNC(=O)/C=C/c3cccnc3)CC2)cc1", "Jurkat", "20 nM"),
    ("O=C(/C=C/c1cccnc1)NCCCOC1CCN(C(=O)c2ccccc2)CC1", "Jurkat", "800 nM"),
    ("O=C(/C=C/c1cccnc1Cl)NCCCCC1CCN(C(=O)c2ccccc2)CC1", "Jurkat", "2500 nM"),
    ("O=C(/C=C/c1cccnc1)NCCCCC1CCN(C(=O)C2CCCOC2)CC1 (stereo not given)", "Jurkat", "35 nM"),
    ("COc1cccc(OC)c1C(=O)N1CCC(CCCCNC(=O)/C=C/c2ccc(F)nc2F)CC1", "Jurkat", "73 nM"),
    ("O=C(/C=C/c1cccnc1)NC/C=C/C1CCN(C(=O)c2ccccc2)CC1", "Jurkat", "100 nM"),
    ("COc1ccc(OC)c(C(=O)N2CCC(CCCCNC(=O)/C=C/c3cccnc3)CC2)c1", "Jurkat", "4.3 nM"),
    ("COc1cccc(OC)c1C(=O)N1CCC(CCCCNC(=O)/C=C/c2ccnnc2)CC1", "Jurkat", "35 nM"),
    ("COc1cc(C(=O)N2CCC(CCCCNC(=O)/C=C/c3cccnc3)CC2)cc(OC)c1OC", "Jurkat", "10 nM"),
]

* * *

system: MIA PaCa-2; test: Antiproliferative activity against human MIA PaCa-2 cells assessed as inhibition of cell growth measured after 72 hrs by XTT assay; format: functional, cell-based; settings: MIA PaCa-2, 72 h

# compound.smiles, result.units, IC50
records = [
    ("COc1cc(OC)c(C(=O)N2CCC(CCCCNC(=O)/C=C/c3cccnc3)CC2)c(OC)c1", "nM", 0.16),
    ("COc1cc(C=O)cc(OC)c1C(=O)N1CCC(CCCCNC(=O)/C=C/c2cccnc2)CC1", "nM", 0.25),
    ("COc1cc(C=O)cc(OC)c1C(=O)N1CCC(CCCCNC(=O)/C=C/c2cccnc2F)CC1", "nM", 3),
    ("COc1cccc(C(=O)N2CCC(CCCCNC(=O)/C=C/c3cccnc3)CC2)c1OC", "nM", 4.5),
    ("COc1ccc(OC)c(C(=O)N2CCC(CCCCNC(=O)/C=C/c3cccnc3)CC2)c1", "nM", 3.9),
    ("COc1cccc(OC)c1C(=O)N1CCC(C/C=C/CNC(=O)/C=C/c2cccnc2)CC1", "nM", 2.7),
    ("COc1cccc(OC)c1C(=O)N1CCC(CCCCNC(=O)/C=C/c2cccnc2)CC1", "nM", 0.5),
    ("COc1cc(OC)c(C(=O)N2CCC(C/C=C/CNC(=O)/C=C/c3cccnc3)CC2)c(OC)c1", "nM", 0.8),
    ("O=C(/C=C/c1cccnc1F)NCCCCC1CCN(C(=O)c2ccccc2)CC1", "nM", 4),
]

The origin of these recorded values is ChEMBL document CHEMBL5352384.
